Reference source: paper PMC8269107

system: S. aureus PCM 2054; experiment: MIC, broth microdilution; format: cell-based, Staphylococcus aureus; conditions: S. aureus PCM 2054, standard Mueller-Hinton broth, 24 h
Where a SMILES comes first, the peptide text is derived from it. The star is where a group is joined. Lauroyl = CCCCCCCCCCCC(=O)*; Pentanoyl = CCCCC(=O)*
The entries below come with measured MIC100 values attached.
The response must be a number in µg/mL with no trailing unit.

CCCCC(=O)N[C@H](C(=O)N[C@@H](CCCCN)C(=O)N[C@@H](CCCCN)C(=O)N[C@H](C(=O)N[C@@H](CC(C)C)C(=O)N[C@@H](CO)C(=O)N[C@@H](CCCCN)C(=O)N[C@H](C(=O)N[C@@H](CCCCN)C(=O)N[C@@H](CCCCN)C(=O)N[C@@H](CC(C)C)C(=O)N[C@@H](CC(C)C)C(N)=O)[C@@H](C)CC)[C@@H](C)CC)[C@@H](C)CC [Compound C5-DK5] (Pentanoyl-IKKILSKIKKLL-NH2)
12.5

Next, consider the following compound.
MIC100 for CCCCCCCCCCCC(=O)N[C@H](C(=O)N[C@@H](CCCCN)C(=O)N[C@@H](CCCCN)C(=O)N[C@H](C(=O)N[C@@H](CC(C)C)C(=O)N[C@@H](CO)C(=O)N[C@@H](CCCCN)C(=O)N[C@H](C(=O)N[C@@H](CCCCN)C(=O)N[C@@H](CCCCN)C(=O)N[C@@H](CC(C)C)C(=O)N[C@@H](CC(C)C)C(N)=O)[C@@H](C)CC)[C@@H](C)CC)[C@@H](C)CC [Compound C12-DK5] (Lauroyl-IKKILSKIKKLL-NH2) ?
6.25
